# System: HL-60(TB) leukemia
# Assay Comment: NCI tumour cell line growth inhibition, 48 h
Quantity: TGI (µM)

INSERT INTO measurements (compound, result_comparator, observed) VALUES
  ('O=C(Nc1ccc(Cl)cc1Cl)c1ccc(NC2=C(Cl)C(=O)N(Cc3ccccc3)C2=O)cc1', '=', 9.01),
  ('CCC[CH2][Sn]([CH2]CCC)([O]C(=O)c1c(F)cccc1F)[O]C(=O)c1c(F)cccc1F', '>', 100),
  ('Nc1ncnc2c1ncn2C1OC(COP(=O)(O)CP(=O)(O)O)C(O)C1O (configuration not stated)', '>', 100),
  ('COc1ccc(S(=O)(=O)NC(C)C(=O)O)cc1 (configuration not stated)', '>', 100),
  ('Cc1ccc(S(=O)(=O)N/N=C/c2oc(-c3cccc([N+](=O)[O-])c3)c(-c3cccc([N+](=O)[O-])c3)c2[N+](=O)[O-])cc1', '=', 57.1),
  ('COc1cc2c(cc1OCCCN1CCN(CCCOc3cc4c(cc3OC)C(=O)N3CCC[C@H]3C=N4)CC1)C=CC(C)(C)O2', '=', 0.738),
  ('CC1[C@@H]2[C@@H](C=C3C4CCC5Cc6nc7c(nc6C[C@@]5(C)C4C[C@H](O)[C@]32CO)CC2CCC3C4=C[C@H]5O[C@@]6(O[C@@](C)(CO)C[C@@H]6O)C(C)[C@@]5(O)[C@]4(C)[C@@H](O)CC3[C@]2(C)C7)O[C@]12CCC(C)(C)O2 (some centres not stated)', '=', 0.496);

Data provenance: PubChem BioAssay (NCI)
